- System: P. falciparum 3D7 parasites
- METHOD SUMMARY: P. falciparum growth inhibition assay, 1-cycle (72 h treatment), SYBR DNA staining (library screen at 2 μg/mL and dose-response)
- Format: cell-based, Plasmodium falciparum
- SETTINGS: P. falciparum 3D7, 72 h, library screen at 2 μg/mL, % growth, replicate 2
Label Satisfied when Pf_72h_%Growth_Rep2 is at or above 90%; otherwise label Not satisfied.

{"columns": ["COMPOUND", "CAT"],
 "data": [
  ["CC(C=CC1OC(=O)C=CC1C)=CC(C)CC=CC(C)=CC(C)C(=O)C(C)C(O)C(C)CC(C)=CC(=O)O (stereo not shown) [BIA-L1045]", "Not satisfied"],
  ["CCCCC(C)C=C(C)C=C(C)C(=O)NC1=CC(O)(C=CC=CC=CC(=O)NC2=C(O)CCC2=O)C2OC2C1=O (stereo not shown) [BIA-M1905]", "Not satisfied"],
  ["CCC(C)C1OC2(CCC1C)CC1CC(CC=C(C)C(OC3CC(OC)C(OC4CC(OC)C(O)C(C)O4)C(C)O3)C(C)C=CC=C3COC4C(O)C(C)=CC(C(=O)O1)C34O)O2 (stereo not shown) [BIA-I1119]", "Not satisfied"]
]}

Request: Is Pf_72h_%Growth_Rep2 for CC1OC(=O)C2CC3CCCCC3C(C=CC3CCCC(C)N3C)C12 (stereo not shown) [BIA-H1744] at or above 90%?
Result: Satisfied

Request: API: above_or_equal(metric=Pf_72h_%Growth_Rep2, cutoff=90%) for item CCC(C)C1OC2(CCC1C)CC1CC(CC=C(C)C(O)C(C)C=CC=C3COC4C(O)C(C)=CC(C(=O)O1)C34O)O2 (stereo not shown) [BIA-I1151]
Result: Not satisfied

Request: Quick check: does COc1cc2c(oc(=O)c3cc(C)cc(OC)c32)c2c([C@H]3O[C@@H]([C@@H](C)O)[C@H](O)[C@H]3O)ccc(O)c12 [BIA-G1034] have Pf_72h_%Growth_Rep2 greater than or equal to 90%?
Result: Satisfied

Request: Item CCCC(=O)OC1C(C)OC(OC2C(C)OC(OC3C(CC=O)CC(C)C(O)C=CC=CCC(C)OC(=O)CC(OC(C)=O)C3OC)C(O)C2N(C)C)CC1(C)O (stereo not shown) [BIA-L1364] with Pf_72h_%Growth_Rep2 of 90% or above?
Result: Not satisfied

Request: Is it the case that Cc1c2ccocc-2oc1=O [BIA-K1791] has Pf_72h_%Growth_Rep2 reaching or exceeding 90%?
Result: Satisfied
